Recorded measurements of MIC, one per entry
system: Staphylococcus aureus; experiment: Antibacterial activity against methicillin-, inducible MLS-resistant Staphylococcus aureus PU 32 by broth microdilution method

Below: 3 compounds and their reported MIC.
>  <ENTRY SMILES>
CC[C@H]1OC(=O)[C@H](C)[C@@H](OC/C=C/c2cncc3ccccc23)[C@H](C)[C@@H](O[C@@H]2O[C@H](C)C[C@H](N(C)C)[C@H]2O)[C@](C)(OC)C[C@@H](C)/C(=N\OCc2ccccc2Cl)[C@H](C)[C@H]2OC(=O)O[C@@]21C

>  <VALUE MEASURED>
256 mg/L

$$$$
>  <ENTRY SMILES>
CC[C@H]1OC(=O)[C@H](C)[C@@H](O/C=C\Cc2cncnc2)[C@H](C)[C@@H](O[C@@H]2O[C@H](C)C[C@H](N(C)C)[C@H]2O)[C@](C)(OC)C[C@@H](C)/C(=N\OCc2ccccc2)[C@H](C)[C@H]2OC(=O)O[C@@]21C

>  <VALUE MEASURED>
1 mg/L

$$$$
>  <ENTRY SMILES>
CC[C@H]1OC(=O)[C@H](C)[C@@H](OCC#Cc2cncnc2)[C@H](C)[C@@H](O[C@@H]2O[C@H](C)C[C@H](N(C)C)[C@H]2O)[C@](C)(OC)C[C@@H](C)/C(=N\OCc2ccccc2Cl)[C@H](C)[C@H]2OC(=O)O[C@@]21C

>  <VALUE MEASURED>
32 mg/L

$$$$

Read the entry `CC[C@H]1OC(=O)[C@H](C)[C@@H](O/C=C\Cc2cncnc2)[C@H](C)[C@@H](O[C@@H]2O[C@H](C)C[C@H](N(C)C)[C@H]2O)[C@](C)(OC)C[C@@H](C)C(=O)[C@H](C)[C@@H](O)[C@]1(C)O` and write its reported MIC.
4 mg/L
